# Tested on: 616215-338-R-J1-PDC spheroids with HUVEC/MSC, viability;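 note: spheroids exposed to agents for seven days before the viability read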
# assayComment: Anticancer human tumor 616215-338-R-J1-PDC patient-derived colon adenocarcinoma cell line growth inhibition [PI3K]
# measurementSetup: second compound 0.316 µM; first compound 0.1 µM; hits give low values
property: viability, T/C (%)
// note: answer is a bare numeric in %

Known viability, T/C results, listed for orientation:
[
  {
    "compound": "CCCS(=O)(=O)Nc1ccc(F)c(C(=O)c2c[nH]c3ncc(-c4ccc(Cl)cc4)cc23)c1F + CC(Nc1ncnc2nc[nH]c12)c1cc2cccc(Cl)c2c(=O)n1-c1ccccc1",
    "viability, T/C, %": 113
  },
  {
    "compound": "Cn1ncnc1[C@H]1c2n[nH]c(=O)c3cc(F)cc(c23)N[C@@H]1c1ccc(F)cc1 + CC(Nc1ncnc2nc[nH]c12)c1cc2cccc(Cl)c2c(=O)n1-c1ccccc1",
    "viability, T/C, %": 101
  },
  {
    "compound": "CC(Cn1ccc(-c2ccc(C#N)c(Cl)c2)n1)NC(=O)c1cc(C(C)O)[nH]n1 (stereo unspecified) + COc1c(OCCCN2CCOCC2)ccc2c3n(c(=NC(=O)c4cnc(N)nc4)nc12)CCN3",
    "viability, T/C, %": 34.7
  }
]

Exam item: Under 616215-338-R-J1-PDC spheroids with HUVEC/MSC, viability: report viability, T/C of Cn1ncc(Cl)c1-c1cc(C(=O)NC(CN)Cc2cccc(F)c2)sc1Cl (stereo unspecified) + CC(Nc1ncnc2nc[nH]c12)c1cc2cccc(Cl)c2c(=O)n1-c1ccccc1 .
Marked response: 100

Exam item: Under 616215-338-R-J1-PDC spheroids with HUVEC/MSC, viability: report viability, T/C of CC(C)n1nc(-c2ccc3oc(N)nc3c2)c2c(N)ncnc21 + CC(Nc1ncnc2nc[nH]c12)c1cc2cccc(Cl)c2c(=O)n1-c1ccccc1 .
Marked response: 77.4

Exam item: Under 616215-338-R-J1-PDC spheroids with HUVEC/MSC, viability: report viability, T/C of Cn1ncnc1[C@H]1c2n[nH]c(=O)c3cc(F)cc(c23)N[C@@H]1c1ccc(F)cc1 + CC(Nc1ccc2c(c1)OCCn1cc(N3C(=O)OCC3C(F)F)nc1-2)C(N)=O .
Marked response: 88.7

Exam item: Under 616215-338-R-J1-PDC spheroids with HUVEC/MSC, viability: report viability, T/C of CC(Cn1ccc(-c2ccc(C#N)c(Cl)c2)n1)NC(=O)c1cc(C(C)O)[nH]n1 (stereo unspecified) + CC(Nc1ncnc2nc[nH]c12)c1cc2cccc(Cl)c2c(=O)n1-c1ccccc1 .
Marked response: 102

Exam item: Under 616215-338-R-J1-PDC spheroids with HUVEC/MSC, viability: report viability, T/C of CCCS(=O)(=O)Nc1ccc(F)c(C(=O)c2c[nH]c3ncc(-c4ccc(Cl)cc4)cc23)c1F + Cc1nc(NC(=O)N2CCCC2C(N)=O)sc1-c1ccnc(C(C)(C)C(F)(F)F)c1 .
Marked response: 90.1

Exam item: Under 616215-338-R-J1-PDC spheroids with HUVEC/MSC, viability: report viability, T/C of C=CC(=O)N1CCN(c2nc(=O)n(-c3c(C)ccnc3C(C)C)c3nc(-c4c(O)cccc4F)c(F)cc23)C(C)C1 (stereo unspecified) + CC(Nc1ccc2c(c1)OCCn1cc(N3C(=O)OCC3C(F)F)nc1-2)C(N)=O .
Marked response: 99.3

Exam item: Under 616215-338-R-J1-PDC spheroids with HUVEC/MSC, viability: report viability, T/C of CC1(C)CCC(CN2CCN(c3ccc(C(=O)NS(=O)(=O)c4ccc(NCC5CCOCC5)c([N+](=O)[O-])c4)c(Oc4cnc5[nH]ccc5c4)c3)CC2)=C(c2ccc(Cl)cc2)C1 + Cc1nc(NC(=O)N2CCCC2C(N)=O)sc1-c1ccnc(C(C)(C)C(F)(F)F)c1 .
Marked response: 97.1

Exam item: Under 616215-338-R-J1-PDC spheroids with HUVEC/MSC, viability: report viability, T/C of CC(Cn1ccc(-c2ccc(C#N)c(Cl)c2)n1)NC(=O)c1cc(C(C)O)[nH]n1 (stereo unspecified) + CC(Nc1ccc2c(c1)OCCn1cc(N3C(=O)OCC3C(F)F)nc1-2)C(N)=O .
Marked response: 104

// provenance: PubChem BioAssay AID1963978
